species: Rattus norvegicus; assay: Open TG-GATES - Regimen: Daily Repeat; format: toxicity, organism-based, Sprague-Dawley; design: regimen Daily Repeat, gender Male, age 6 weeks; details: in vivo, po, 0 mg/kg, […], tissue Blood, route gavage, dose level Control, time 7 day
APTT strictly under 20 s means Met; at 20 s or over means Not met.

Molecule	Assigned label
CCOC(=O)C(C)(C)Oc1ccc(Cl)cc1 [CLOFIBRATE]	Not met
OCCN1CCN(CCCN2c3ccccc3Sc3ccc(C(F)(F)F)cc32)CC1 [FLUPHENAZINE]	Met
C[C@H]1O[C@H](O[C@H]2[C@H](O)[C@@H](O)[C@@H](O[C@H]3[C@H](O)[C@@H](O)C(O)O[C@@H]3CO)O[C@@H]2CO)[C@H](O)[C@@H](O)[C@@H]1N[C@H]1C=C(CO)[C@@H](O)[C@H](O)[C@H]1O (some centres undefined) [ACARBOSE]	Met
Cn1cc[nH]c1=S [METHIMAZOLE]	Not met
C[C@H]1C(=O)O[C@@H]2CCN3CC=C(COC(=O)[C@](C)(O)[C@]1(C)O)[C@H]23 [MONOCROTALINE]	Not met
O=[N+]([O-])c1ccc(O)c([N+](=O)[O-])c1 [2,4-DINITROPHENOL]	Met
C=C(C)[C@H]1Cc2c(ccc3c2O[C@@H]2COc4cc(OC)c(OC)cc4[C@@H]2C3=O)O1 [ROTENONE]	Met
Cc1cccc(C)c1OCC(C)N (centres undefined) [MEXILETINE]	Not met

* * *

species on record: Rattus norvegicus; assay: Open TG-GATES - Regimen: Single; type: toxicity, organism-based, Sprague-Dawley; set-up: regimen Single, gender Male, age 6 weeks; conditions: in vivo, po, 0 mg/kg, 24 h, tissue Blood, route gavage, dose level Control
Property measured: Eos (%)

>>> df
                                   compound  reported
0  C=C(C)[C@H]1Cc2c(ccc3c2O[C@@H]2COc4cc(OC)c(OC)cc4[C@@H]2C3=O)O1         1
1  CCOC(=O)C(C)(C)Oc1ccc(Cl)cc1 [CLOFIBRATE]         1
2         Cc1ccc2cc3c(ccc4ccccc43)c3c2c1CC3       0.6
3  O=C1CN(/N=C/c2ccc([N+](=O)[O-])o2)C(=O)N1         1
4    Cc1cccc(C)c1OCC(C)N (stereo not given)         1

* * *

Each entry below lists one item and its recorded log10 of TBIL value.
organism: Rattus norvegicus; experiment: Open TG-GATES - Regimen: Single; type: toxicity, organism-based, Sprague-Dawley; design: regimen Single, gender Male, age 6 weeks; conditions: in vivo, po, 0 mg/kg, 24 h, tissue Plasma, route gavage, dose level Control
Property measured: log10 of TBIL (log10 of the value in mg/dL)

Compound	Property measured	Reported
C[C@H]1O[C@H](O[C@H]2[C@H](O)[C@@H](O)[C@@H](O[C@H]3[C@H](O)[C@@H](O)C(O)O[C@@H]3CO)O[C@@H]2CO)[C@H](O)[C@@H](O)[C@@H]1N[C@H]1C=C(CO)[C@@H](O)[C@H](O)[C@H]1O (some centres undefined)	log10 of TBIL	-1.21
OCCN1CCN(CCCN2c3ccccc3Sc3ccc(C(F)(F)F)cc32)CC1	log10 of TBIL	-0.52
O=[N+]([O-])c1ccc(O)c([N+](=O)[O-])c1	log10 of TBIL	-1.47
C=C(C)[C@H]1Cc2c(ccc3c2O[C@@H]2COc4cc(OC)c(OC)cc4[C@@H]2C3=O)O1	log10 of TBIL	-1.38
C[C@H]1C(=O)O[C@@H]2CCN3CC=C(COC(=O)[C@](C)(O)[C@]1(C)O)[C@H]23	log10 of TBIL	-2.10
Cc1ccc2cc3c(ccc4ccccc43)c3c2c1CC3	log10 of TBIL	-2.22
Cn1cc[nH]c1=S	log10 of TBIL	-2.40
Cc1cccc(C)c1OCC(C)N (centres undefined)	log10 of TBIL	-2.10
CCOC(=O)C(C)(C)Oc1ccc(Cl)cc1 [CLOFIBRATE]	log10 of TBIL	-0.70

* * *

species on record: Rattus norvegicus; experiment: Open TG-GATES - Regimen: Daily Repeat; format: toxicity, organism-based, Sprague-Dawley; design: regimen Daily Repeat, gender Male, age 6 weeks; conditions: in vivo, po, 0 mg/kg, […], tissue Plasma, route gavage, dose level Control, time 14 day

Molecule	TBIL (mg/dL)
O=C1CN(/N=C/c2ccc([N+](=O)[O-])o2)C(=O)N1 [NITROFURANTOIN]	0.2
C[C@H]1C(=O)O[C@@H]2CCN3CC=C(COC(=O)[C@](C)(O)[C@]1(C)O)[C@H]23 [MONOCROTALINE]	0
C[C@H]1O[C@H](O[C@H]2[C@H](O)[C@@H](O)[C@@H](O[C@H]3[C@H](O)[C@@H](O)C(O)O[C@@H]3CO)O[C@@H]2CO)[C@H](O)[C@@H](O)[C@@H]1N[C@H]1C=C(CO)[C@@H](O)[C@H](O)[C@H]1O (stereo not given in full) [ACARBOSE]	0.048
O=[N+]([O-])c1ccc(O)c([N+](=O)[O-])c1 [2,4-DINITROPHENOL]	0.024
CCOC(=O)C(C)(C)Oc1ccc(Cl)cc1 [CLOFIBRATE]	0.1

* * *

organism: Rattus norvegicus; assay: Open TG-GATES - Regimen: Daily Repeat; format: toxicity, organism-based, Sprague-Dawley; design: regimen Daily Repeat, gender Male, age 6 weeks; conditions: in vivo, po, 0 mg/kg, […], tissue Plasma, route gavage, dose level Control, time 7 day
Recorded Na by entry

Compound	Na
O=C1CN(/N=C/c2ccc([N+](=O)[O-])o2)C(=O)N1 [NITROFURANTOIN]	139.8 meq/L
CCOC(=O)C(C)(C)Oc1ccc(Cl)cc1 [CLOFIBRATE]	138.8 meq/L
O=[N+]([O-])c1ccc(O)c([N+](=O)[O-])c1 [2,4-DINITROPHENOL]	141.2 meq/L
OCCN1CCN(CCCN2c3ccccc3Sc3ccc(C(F)(F)F)cc32)CC1 [FLUPHENAZINE]	138.8 meq/L
Cn1cc[nH]c1=S [METHIMAZOLE]	142.2 meq/L
C[C@H]1O[C@H](O[C@H]2[C@H](O)[C@@H](O)[C@@H](O[C@H]3[C@H](O)[C@@H](O)C(O)O[C@@H]3CO)O[C@@H]2CO)[C@H](O)[C@@H](O)[C@@H]1N[C@H]1C=C(CO)[C@@H](O)[C@H](O)[C@H]1O (some centres undefined) [ACARBOSE]	142.4 meq/L
C=C(C)[C@H]1Cc2c(ccc3c2O[C@@H]2COc4cc(OC)c(OC)cc4[C@@H]2C3=O)O1 [ROTENONE]	140.4 meq/L
C[C@H]1C(=O)O[C@@H]2CCN3CC=C(COC(=O)[C@](C)(O)[C@]1(C)O)[C@H]23 [MONOCROTALINE]	142.4 meq/L
Cc1cccc(C)c1OCC(C)N (centres undefined) [MEXILETINE]	141.4 meq/L

* * *

organism: Rattus norvegicus; experiment: Open TG-GATES - Regimen: Daily Repeat; assay type: toxicity, organism-based, Sprague-Dawley; parameters: regimen Daily Repeat, gender Male, age 6 weeks; settings: in vivo, po, 0 mg/kg, […], tissue Kidney, route gavage, dose level Control, time 28 day

Compound	KIDNEY_L
OCCN1CCN(CCCN2c3ccccc3Sc3ccc(C(F)(F)F)cc32)CC1 [FLUPHENAZINE]	1.5 g
O=C1CN(/N=C/c2ccc([N+](=O)[O-])o2)C(=O)N1 [NITROFURANTOIN]	1.5 g
C[C@H]1O[C@H](O[C@H]2[C@H](O)[C@@H](O)[C@@H](O[C@H]3[C@H](O)[C@@H](O)C(O)O[C@@H]3CO)O[C@@H]2CO)[C@H](O)[C@@H](O)[C@@H]1N[C@H]1C=C(CO)[C@@H](O)[C@H](O)[C@H]1O (stereo partly drawn) [ACARBOSE]	1.4 g

* * *

# Neu per record follows
species: Rattus norvegicus; experiment: Open TG-GATES - Regimen: Single; assay type: toxicity, organism-based, Sprague-Dawley; set-up: regimen Single, gender Male, age 6 weeks; settings: in vivo, po, 0 mg/kg, 24 h, tissue Blood, route gavage, dose level Control
Property measured: Neu (%)

Compound	Reported
C=C(C)[C@H]1Cc2c(ccc3c2O[C@@H]2COc4cc(OC)c(OC)cc4[C@@H]2C3=O)O1	20
Cn1cc[nH]c1=S	17.4
Cc1cccc(C)c1OCC(C)N (centres undefined)	17.6
Cc1ccc2cc3c(ccc4ccccc43)c3c2c1CC3	16
CCOC(=O)C(C)(C)Oc1ccc(Cl)cc1 [CLOFIBRATE]	15.8
O=[N+]([O-])c1ccc(O)c([N+](=O)[O-])c1	17.8
OCCN1CCN(CCCN2c3ccccc3Sc3ccc(C(F)(F)F)cc32)CC1	11.4
C[C@H]1C(=O)O[C@@H]2CCN3CC=C(COC(=O)[C@](C)(O)[C@]1(C)O)[C@H]23	12.6
C[C@H]1O[C@H](O[C@H]2[C@H](O)[C@@H](O)[C@@H](O[C@H]3[C@H](O)[C@@H](O)C(O)O[C@@H]3CO)O[C@@H]2CO)[C@H](O)[C@@H](O)[C@@H]1N[C@H]1C=C(CO)[C@@H](O)[C@H](O)[C@H]1O (some centres undefined)	21.4
